Assay: Volume of distribution at steady state with respect to bioavailability in liver transplant patient with end-stage liver disease at 200 mg/kg, po bid
Assay type: ADME, organism-based
Settings: human, in vivo, read-out: Vc/F
value.kind: Vd/F (L)
One number for each entry, in L.

Given the compound C[C@@H](c1ncncc1F)[C@](O)(Cn1cncn1)c1ccc(F)cc1F , what is its reported Vd/F?
94.5

* * *

Assay: Cmax in liver transplant patient with end-stage liver disease at 200 mg/kg, po bid
Assay type: ADME, organism-based
Parameters: dose 200 mg/kg, route oral
Conditions: human, in vivo
value.kind: Cmax (ng/mL)
Give bare numbers, in ng/mL.

Given the compound C[C@@H](c1ncncc1F)[C@](O)(Cn1cncn1)c1ccc(F)cc1F , what is its reported Cmax?
2900

* * *

Test: Terminal half life in liver transplant patient with end-stage liver disease at 200 mg/kg, po bid
Format: ADME, organism-based
Set-up: dose 200 mg/kg, route oral
Conditions: human, in vivo, read-out: beta t1/2 (converted)
value.kind: half-life (h)
One number for each entry, in h.

Given the compound C[C@@H](c1ncncc1F)[C@](O)(Cn1cncn1)c1ccc(F)cc1F [VORICONAZOLE] , what is its reported half-life?
15
